These data points were gathered from patent US20260226154A1.

Listed binders paired with reported kon
- Target under test: T1, PACAP38 (human, not fully specified)
- T1 construct: The background says natural PACAP is alpha-amidated
- T1 peptide: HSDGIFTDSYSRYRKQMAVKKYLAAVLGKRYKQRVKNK
- Experiment notes: SPR (Biacore), 37 C, antibody captured via anti-human Fc, peptide analyte
Could you give me the number in M⁻¹ s⁻¹? Just the number is fine.

# example entries with known answers
Binder	Endpoint label	Unit descriptor	Observed result
608C (antibody, V domains shown) VH: EVQLVQSGAEVKKPGSSVKVSCKASGGTFSDLYMHWVRQAPGQGLEWMGLIYPIFADTRYAQKFQGRVTITADESTSTAYMELSSLRSEDTAVYYCAIDQDGSFAYWGQGTLVTVSS VL: DIVMTQSPDSLAVSLGERATINCKSSQSLLDSDGKTYLNWLQQKPGQPPKRLIYWASTRESGVPDRFSGSGSGTDFTLTISSLQAEDVAVYYCWQGTWFDLTFGGGTKVEIKR	kon	M⁻¹ s⁻¹	7.19e+07
919A (antibody, V domains shown, Humanized anti-PACAP variant) VH: EVQLVQSGAEVKKPGSSVKVSCKASGGTFSDSYMHWVRQAPGQGLEWMGLIYPIFADTRYAQKFQGRVTITADESTSTAYMELSSLRSEDTAVYYCAIDYDGSFAYWGQGTLVTVSS VL: DIVMTQSPDSLAVSLGERATINCKSSQSLLDSDGKTYLNWLQQKPGQPPKRLIYLVSTRESGVPDRFSGSGSGTDFTLTISSLQAEDVAVYYCWQGTHFPLTFGGGTKVEIK	kon	M⁻¹ s⁻¹	6.75e+07

From here, focus on the item given below.
What kon value was documented for this binder, 890C (antibody, human IgG2, kappa, V domains shown, Full chains as named '890C heavy chain' / '890C light chain' (IgG2DASS, kappa); also called anti-PACAP antibody 890C) VH: EVQLVQSGAEVKKPGSSVKVSCKASGGTFSDVYMHWVRQAPGQGLEWMGLIYPIFADTRYAQKFQGRVTITADESTSTAYMELSSLRSEDTAVYYCAIDQDGSFAYWGQGTLVTVSS VL: DIVMTQSPDSLAVSLGERATINCKSSQSLLDADGKTYLNWLQQKPGQPPKRLIYWASTRESGVPDRFSGSGSGTDFTLTISSLQAEDVAVYYCWQGTWFDLTFGGGTKVEIKR ?
2.36e+07
